// TC lookup, one value per entry
- Species on record: Rattus norvegicus
- Method Description: Open TG-GATES - Regimen: Daily Repeat
- Format: toxicity, organism-based, Sprague-Dawley
- Parameters: regimen Daily Repeat, gender Male, age 6 weeks
- Run Parameters: in vivo, po, 0 mg/kg, […], tissue Plasma, route gavage, dose level Control, time 7 day
The reply should be a number in mg/dL, with the unit left off.

The examples below pair each entry with its known result.
[
  {
    "Compound": "C=CCO",
    "Number": 74
  },
  {
    "Compound": "Cn1c(=O)c2c(ncn2C)n(C)c1=O",
    "Number": 76.6
  },
  {
    "Compound": "O=C1NC(=O)C(c2ccccc2)(c2ccccc2)N1",
    "Number": 67.4
  },
  {
    "Compound": "COc1ccc(Cl)cc1C(=O)NCCc1ccc(S(=O)(=O)NC(=O)NC2CCCCC2)cc1 [GLYBURIDE]",
    "Number": 71.6
  },
  {
    "Compound": "CS(=O)(=O)Nc1ccc([N+](=O)[O-])cc1Oc1ccccc1 [NIMESULIDE]",
    "Number": 79.2
  },
  {
    "Compound": "Cn1cnc([N+](=O)[O-])c1Sc1ncnc2nc[nH]c12",
    "Number": 80
  },
  {
    "Compound": "O=P1(N(CCCl)CCCl)NCCCO1 (stereo unspecified) [CYCLOPHOSPHAMIDE ANHYDROUS]",
    "Number": 73.8
  },
  {
    "Compound": "Cc1cccc(Nc2cc(Cl)nc(SCC(=O)O)n2)c1C",
    "Number": 80.8
  }
]

Data request: May I ask what TC has been recorded for COc1ccc(O)c(C(C)(C)C)c1.COc1ccc(O)cc1C(C)(C)C [BUTYLATED HYDROXYANISOLE] ?
Data returned: 70.6

Data request: Repeat for the following compound: Cc1cnc(NC(=O)C2=C(O)c3ccccc3S(=O)(=O)N2C)s1
Data returned: 67.2

Data request: Repeat for the following compound: O=C1CN(/N=C/c2ccc(-c3ccc([N+](=O)[O-])cc3)o2)C(O)=N1
Data returned: 79.6

###

- Species: Rattus norvegicus
- Method Description: Open TG-GATES - Regimen: Daily Repeat
- Format: toxicity, organism-based, Sprague-Dawley
- Set-up: regimen Daily Repeat, gender Male, age 6 weeks
- Run Parameters: in vivo, po, 0 mg/kg, […], tissue Blood, route gavage, dose level Control, time 14 day
Outcome Measure: Ret (%)
The reply should be a number in %, with the unit left off.

The examples below pair each entry with its known result.
[
  {
    "Compound": "COc1ccc(Cl)cc1C(=O)NCCc1ccc(S(=O)(=O)NC(=O)NC2CCCCC2)cc1 [GLYBURIDE]",
    "Value Unit": "%",
    "Ret": 4.3
  },
  {
    "Compound": "O=P1(N(CCCl)CCCl)NCCCO1 (stereo unspecified) [CYCLOPHOSPHAMIDE ANHYDROUS]",
    "Value Unit": "%",
    "Ret": 4.8
  },
  {
    "Compound": "COc1ccc(O)c(C(C)(C)C)c1.COc1ccc(O)cc1C(C)(C)C [BUTYLATED HYDROXYANISOLE]",
    "Value Unit": "%",
    "Ret": 3.6
  }
]

Data request: May I ask what Ret has been recorded for Cc1cccc(Nc2cc(Cl)nc(SCC(=O)O)n2)c1C ?
Data returned: 4.1

Data request: Repeat for the following compound: CS(=O)(=O)Nc1ccc([N+](=O)[O-])cc1Oc1ccccc1 [NIMESULIDE]
Data returned: 6.7

Data request: Repeat for the following compound: Cn1c(=O)c2c(ncn2C)n(C)c1=O
Data returned: 4.3

Data request: Repeat for the following compound: Cc1cnc(NC(=O)C2=C(O)c3ccccc3S(=O)(=O)N2C)s1
Data returned: 3.2

Data request: Repeat for the following compound: Cn1cnc([N+](=O)[O-])c1Sc1ncnc2nc[nH]c12
Data returned: 4

Data request: Repeat for the following compound: O=C1NC(=O)C(c2ccccc2)(c2ccccc2)N1
Data returned: 4.6

Data request: Repeat for the following compound: O=C1CN(/N=C/c2ccc(-c3ccc([N+](=O)[O-])cc3)o2)C(O)=N1
Data returned: 3.7

Data request: Repeat for the following compound: C=CCO
Data returned: 4.1

###

- Species on record: Rattus norvegicus
- Method Description: Open TG-GATES - Regimen: Daily Repeat
- Format: toxicity, organism-based, Sprague-Dawley
- Parameters: regimen Daily Repeat, gender Male, age 6 weeks
- Run Parameters: in vivo, po, 0 mg/kg, […], tissue Blood, route gavage, dose level Control, time 14 day
Outcome Measure: PT (s)
The reply should be a number in s, with the unit left off.

[
  {
    "Compound": "Cn1cnc([N+](=O)[O-])c1Sc1ncnc2nc[nH]c12 [AZATHIOPRINE]",
    "Value Unit": "s",
    "PT": 16.9
  }
]

Data request: May I ask what PT has been recorded for CS(=O)(=O)Nc1ccc([N+](=O)[O-])cc1Oc1ccccc1 [NIMESULIDE] ?
Data returned: 11.8

Data request: Repeat for the following compound: Cc1cnc(NC(=O)C2=C(O)c3ccccc3S(=O)(=O)N2C)s1 [MELOXICAM]
Data returned: 11.6

Data request: Repeat for the following compound: Cc1cccc(Nc2cc(Cl)nc(SCC(=O)O)n2)c1C [PIRINIXIC ACID]
Data returned: 12.4

Data request: Repeat for the following compound: O=C1NC(=O)C(c2ccccc2)(c2ccccc2)N1 [PHENYTOIN]
Data returned: 16.5

Data request: Repeat for the following compound: Cn1c(=O)c2c(ncn2C)n(C)c1=O [CAFFEINE]
Data returned: 15.5

Data request: Repeat for the following compound: COc1ccc(O)c(C(C)(C)C)c1.COc1ccc(O)cc1C(C)(C)C [BUTYLATED HYDROXYANISOLE]
Data returned: 12.2

Data request: Repeat for the following compound: O=P1(N(CCCl)CCCl)NCCCO1 (stereo not given) [CYCLOPHOSPHAMIDE ANHYDROUS]
Data returned: 15

Data request: Repeat for the following compound: C=CCO [ALLYL ALCOHOL]
Data returned: 12

Data request: Repeat for the following compound: COc1ccc(Cl)cc1C(=O)NCCc1ccc(S(=O)(=O)NC(=O)NC2CCCCC2)cc1 [GLYBURIDE]
Data returned: 12.2

###

// Mono lookup, one value per entry
- Species: Rattus norvegicus
- Method Description: Open TG-GATES - Regimen: Daily Repeat
- Assay type: toxicity, organism-based, Sprague-Dawley
- Set-up: regimen Daily Repeat, gender Male, age 6 weeks
- Run Parameters: in vivo, po, 0 mg/kg, 72 h, tissue Blood, route gavage, dose level Control, time 3 day
The reply should be a number in %, with the unit left off.

[
  {
    "Molecule": "CS(=O)(=O)Nc1ccc([N+](=O)[O-])cc1Oc1ccccc1 [NIMESULIDE]",
    "Outcome Measure": "Mono",
    "Number": 6.2
  },
  {
    "Molecule": "COc1ccc(O)c(C(C)(C)C)c1.COc1ccc(O)cc1C(C)(C)C [BUTYLATED HYDROXYANISOLE]",
    "Outcome Measure": "Mono",
    "Number": 2.4
  }
]

Data request: May I ask what Mono has been recorded for Cn1c(=O)c2c(ncn2C)n(C)c1=O ?
Data returned: 2

Data request: Repeat for the following molecule: Cc1cccc(Nc2cc(Cl)nc(SCC(=O)O)n2)c1C
Data returned: 2.8

Data request: Repeat for the following molecule: O=P1(N(CCCl)CCCl)NCCCO1 (stereo unspecified) [CYCLOPHOSPHAMIDE ANHYDROUS]
Data returned: 2.6

Data request: Repeat for the following molecule: O=C1NC(=O)C(c2ccccc2)(c2ccccc2)N1
Data returned: 2.4

Data request: Repeat for the following molecule: C=CCO
Data returned: 2.8

Data request: Repeat for the following molecule: Cc1cnc(NC(=O)C2=C(O)c3ccccc3S(=O)(=O)N2C)s1
Data returned: 2.8

###

- Species: Rattus norvegicus
- Method Description: Open TG-GATES - Regimen: Daily Repeat
- Assay type: toxicity, organism-based, Sprague-Dawley
- Design: regimen Daily Repeat, gender Male, age 6 weeks
- Run Parameters: in vivo, po, 0 mg/kg, 72 h, tissue Blood, route gavage, dose level Control, time 3 day
Outcome Measure: Neu (%)
The reply should be a number in %, with the unit left off.

The examples below pair each entry with its known result.
[
  {
    "Compound": "O=P1(N(CCCl)CCCl)NCCCO1 (stereo not given) [CYCLOPHOSPHAMIDE ANHYDROUS]",
    "Value Unit": "%",
    "Neu": 14.6
  },
  {
    "Compound": "Cc1cccc(Nc2cc(Cl)nc(SCC(=O)O)n2)c1C",
    "Value Unit": "%",
    "Neu": 20.2
  },
  {
    "Compound": "O=C1NC(=O)C(c2ccccc2)(c2ccccc2)N1",
    "Value Unit": "%",
    "Neu": 15.2
  },
  {
    "Compound": "COc1ccc(Cl)cc1C(=O)NCCc1ccc(S(=O)(=O)NC(=O)NC2CCCCC2)cc1 [GLYBURIDE]",
    "Value Unit": "%",
    "Neu": 14.6
  }
]

Consider the record given below.
Data request: May I ask what Neu has been recorded for Cc1cnc(NC(=O)C2=C(O)c3ccccc3S(=O)(=O)N2C)s1 ?
Data returned: 17
